test.system: Cytochrome P450 2D6 (Homo sapiens)
assay.name: Cytochrome P450 Family 2 Subfamily D Member 6 (CYP2D6) small molecule antagonists: luciferase reporter qHTS assay (AID 1671196); further: nearly all actives have a fitted effect of over 50% in size; further: potency means the concentration at half of the fitted maximal effect
condition.notes: P450-Glo CYP2D6 enzyme assay, luciferin luminescence, 1 h; series mostly up to 115 µM
Records with an inconclusive call do not appear. Activity calls are given as the source filed them. The call rests on the fitted dose curve; in most records, active means well fitted inhibition curve with a large enough effect in the repeat runs; inconclusive means weak or mixed curves; inactive means no such curve, though single readings can be large or run the other way.
attribute.measured: Potency

                                   compound  experimental_result
0                             S=C=Nc1ccccc1     73.3 µM (active)
1                  c1ccc2nc(N3CCNCC3)ccc2c1             inactive
2                                    C=CCBr     33.6 µM (active)
3  CCCCN(CCCC)C(=S)[S-].CCCCN(CCCC)C(=S)[S-].[Ni+2]             inactive
4                        CNC(C)(C)Cc1ccccc1     9.77 µM (active)

(Q) Fill blank: measured Potency of the compound CCNc1nc(NC(C)C(C)C)nc(SC)n1 (stereo not drawn) is ____.
(A) inactive

(Q) Now the same for COc1ccc2c3c1O[C@H]1[C@H](O)CC[C@H]4[C@@H](C2)N(C)CC[C@@]341
(A) inactive

(Q) Now the same for CN=C=O
(A) 57.2 µM (active)

(Q) Now the same for O=c1[nH]c2cc(Cl)ccc2n1C1CCNCC1
(A) 15.5 µM (active)

(Q) Now the same for C[C@]12C/C(=C/O)C(=O)C[C@@H]1CC[C@@H]1[C@@H]2CC[C@@]2(C)[C@H]1CC[C@]2(C)O
(A) inactive

(Q) Now the same for CC[N+]1(CC)CCC(OC(=O)C(O)(c2ccccc2)c2ccccc2)C1 (stereo not drawn)
(A) 8.71 µM (active)

(Q) Now the same for CSSC
(A) inactive

(Q) Now the same for C=CC(=O)[O][Sn]([CH2]CCC)([CH2]CCC)[CH2]CCC
(A) 1.26 µM (active)

###

test.system: Cytochrome P450 2D6 (Homo sapiens) (UniProt P10635)
Sequence (P10635 whole entry, looked up): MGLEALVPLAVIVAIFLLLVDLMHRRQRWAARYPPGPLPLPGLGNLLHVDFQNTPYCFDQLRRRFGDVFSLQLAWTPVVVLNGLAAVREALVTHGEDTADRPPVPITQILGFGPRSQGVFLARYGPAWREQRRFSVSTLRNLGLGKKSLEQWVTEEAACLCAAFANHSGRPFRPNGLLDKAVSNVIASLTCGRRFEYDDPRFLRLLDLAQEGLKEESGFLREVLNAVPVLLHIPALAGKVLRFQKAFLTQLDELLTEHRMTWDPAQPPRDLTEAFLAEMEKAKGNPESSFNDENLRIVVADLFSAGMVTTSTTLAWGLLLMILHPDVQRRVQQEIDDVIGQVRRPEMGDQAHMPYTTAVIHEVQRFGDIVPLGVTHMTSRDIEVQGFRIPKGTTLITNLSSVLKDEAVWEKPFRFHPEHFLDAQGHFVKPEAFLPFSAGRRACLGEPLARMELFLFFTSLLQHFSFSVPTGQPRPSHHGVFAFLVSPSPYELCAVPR
assay.name: Cytochrome P450 Family 2 Subfamily D Member 6 (CYP2D6) small molecule antagonists: luciferase reporter qHTS assay (AID 1671196); further: nearly all actives have a fitted effect of over 50% in size
condition.notes: P450-Glo CYP2D6 enzyme assay, luciferin luminescence, 1 h; series mostly up to 115 µM
Results filed as inconclusive are left out. Active and inactive are the calls of the source. Calls follow the shape of the dose curve; as a rule, active = well fitted inhibition curve with a large enough effect in the repeat runs; inconclusive = weak or mixed curves; inactive = no such curve, though single readings can be large or run the other way.
// one of 1 (yes) for active, 0 (no) for inactive, no free text

Consider the worked cases shown below.
>>> print(df.to_string())
                                   compound  assigned_label
0  CC[C@]1(O)CC[C@H]2[C@@H]3CCC4=CCCC[C@@H]4[C@H]3CC[C@@]21C          0 (no)
1  ClC1(Cl)C2(Cl)C3(Cl)C4(Cl)C(Cl)(Cl)C5(Cl)C3(Cl)C1(Cl)C5(Cl)C24Cl (stereo unspecified)          0 (no)
2                            ClSC(Cl)(Cl)Cl         1 (yes)
3  CCCCC(CC)COC(=O)OOC(C)(C)C (stereo unspecified)          0 (no)
4  CC(=O)[O][Sn]([c]1ccccc1)([c]1ccccc1)[c]1ccccc1         1 (yes)
5  Cc1cc2c3c(c1)C(c1ccccc1)=N[C@@H](NC(=O)c1ccncc1)C(=O)N3CC2         1 (yes)

(Q) # fetch the recorded call for COc1ccc2c(c1OC)C(=O)O[C@@H]2[C@H]1c2cc3c(cc2CCN1C)OCO3 here
(A) 1 (yes)

###

assay.name: qHTS assay for identifying genotoxic compounds that show differential cytotoxicity against isogenic chicken DT40 cell lines with known DNA damage response pathways - wild type cell line (AID 743012); further: nearly all actives have a fitted effect of over 60% in size; further: potency means the concentration at half of the fitted maximal effect
condition.notes: DT40 wild type chicken cells viability, CellTiter-Glo, 40 h; series mostly up to 68.4 µM
Results filed as inconclusive are left out. The source made the active and inactive calls. Calls come from the whole dose curve; as a rule, active = well fitted cell-killing curve with a large enough effect in the repeat runs; inconclusive = weak or mixed curves, or effect the other way; inactive = no such curve, though single readings can be large or run the other way.
attribute.measured: Potency

// below: answered compounds
In [3]: df
Out[3]:
                           compound  experimental_result
0                       O=Cc1ccccc1             inactive
1      CCOP(=O)(Sc1ccccc1)Sc1ccccc1     24.3 µM (active)
2    OCC(Br)CBr (centres undefined)             inactive
3  CCOP(=O)(OCC)Oc1cc(C)nc(C(C)C)n1             inactive
4                               CNN             inactive

(Q) Fill blank: measured Potency of the compound COc1ccc2c3c1O[C@H]1[C@H](O)CC[C@H]4[C@@H](C2)N(C)CC[C@@]341 is ____.
(A) inactive

(Q) Now the same for CCc1cccc(C)c1N(C(=O)CCl)[C@@H](C)COC
(A) 13.7 µM (active)

(Q) Now the same for N#CC(C#N)=NNc1cccc(Cl)c1
(A) 2.73 µM (active)

(Q) Now the same for CC[C@]1(O)CC[C@H]2[C@@H]3CCC4=CCCC[C@@H]4[C@H]3CC[C@@]21C
(A) 8.41 µM (active)

(Q) Now the same for C#CCC1=C(C)C(OC(=O)C2C(C=C(C)C)C2(C)C)CC1=O (centres undefined)
(A) 19.2 µM (active)

(Q) Now the same for [Cl][Hg][c]1ccccc1
(A) 0.122 µM (active)

(Q) Now the same for CCN(CC)C(=O)N[C@@H]1C=C2c3cccc4[nH]cc(c34)C[C@@H]2N(C)C1
(A) 7.5 µM (active)

(Q) Now the same for CC(C)N(C(=O)SC/C(Cl)=C/Cl)C(C)C
(A) inactive

(Q) Now the same for Cc1ccc(C)c2ccccc12
(A) inactive

###

assay.name: qHTS assay for small molecule disruptors of the mitochondrial membrane potential - cell viability (AID 720634); further: nearly all actives have a fitted effect of over 20% in size
condition.notes: HepG2 viability, ATP luminescence (CellTiter-Glo), 1 h; series mostly up to 83.2 µM
Inconclusive results are not listed. Calls of active or inactive are those of the source. Calls follow the shape of the full dose curve.
// one of yes (1) = active, no (0) = inactive, no free text

Consider the worked cases shown below.
>>> df
                                   compound  assigned_label
0  CC(C)C(Nc1ccc(C(F)(F)F)cc1Cl)C(=O)OC(C#N)c1cccc(Oc2ccccc2)c1 (stereo not given)          no (0)
1             O=C(O)[C@H](O)[C@@H](O)C(=O)O          no (0)
2  CC(=O)[O][Pb]([c]1ccccc1)([c]1ccccc1)[c]1ccccc1         yes (1)

(Q) # fetch the recorded call for O.O.O.O=C([O-])[C@H]([O-])[C@@H]([O-])C(=O)[O-].O=C([O-])[C@H]([O-])[C@@H]([O-])C(=O)[O-].[K+].[K+].[Sb+3].[Sb+3] here
(A) no (0)

(Q) Now the same for Cc1ccn2nc(S(=O)(=O)Nc3c(F)cccc3F)nc2n1
(A) no (0)

(Q) Now the same for CNC(=O)Oc1cc(C)cc(C(C)C)c1
(A) no (0)

(Q) Now the same for O=C(Nc1ccc(F)cc1F)c1cccnc1Oc1cccc(C(F)(F)F)c1
(A) no (0)

(Q) Now the same for O.O.O.O.O.O.O=S(=O)([O-])[O-].[Ni+2]
(A) no (0)

(Q) Now the same for COC(=O)N(OC)c1ccccc1COc1ccn(-c2ccc(Cl)cc2)n1
(A) yes (1)

(Q) Now the same for CCCCN(CCCC)C(=S)[S-].CCCCN(CCCC)C(=S)[S-].[Ni+2]
(A) no (0)

###

test.system: Retinoic acid receptor RXR-alpha (Homo sapiens)
assay.name: qHTS assay to identify small molecule agonists of the RXR signaling pathway (AID 1159527); further: nearly all actives have a fitted effect of over 35% in size
condition.notes: HEK293T RXRa-UAS-bla, beta-lactamase ratio, 16 h; series mostly up to 76.8 µM
Records with an inconclusive call do not appear. Calls of active or inactive are those of the source. Calls come from the whole dose curve.
// one of active, inactive, no free text

Consider the worked cases shown below.
>>> print(df.to_string())
                                   molecule  assigned_label
0                                   COCCC#N        inactive
1                             NC(=O)C(Cl)Cl        inactive
2  CC(C)NCC(O)c1ccccc1Cl (stereo not drawn)        inactive
3                             O=P(Cl)(Cl)Cl        inactive
4                            C#CC1(O)CCCCC1        inactive

(Q) # fetch the recorded call for Oc1ccc([C@H]2CNCc3c2ccc(O)c3O)cc1O here
(A) inactive

(Q) Now the same for CNC(=O)Oc1cc(C)cc(C(C)C)c1
(A) active

(Q) Now the same for O=[N+]([O-])c1cccc2cccc([N+](=O)[O-])c12
(A) inactive

Origin of the recorded values: PubChem BioAssay (Tox21)
